B1: OR4K15 (parent)
chain: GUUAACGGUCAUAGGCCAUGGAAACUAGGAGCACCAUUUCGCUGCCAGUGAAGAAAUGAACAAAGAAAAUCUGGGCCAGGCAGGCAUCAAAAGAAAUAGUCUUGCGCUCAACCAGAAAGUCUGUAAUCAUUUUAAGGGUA

- Variants of: B1
- Assay details: self-cleavage, relative activity (ratio to wild type); higher = more cleavage; in vitro, sequencing; the parent is a self-cleaving ribozyme
Use fulfilled when the recorded self-cleavage is no lower than 0.6; use not fulfilled when it is lower.

residue_sequence="GUUAACGGUCAUAGGCCAUGGAAACUAGGAGCACCAUUUCGCUGCCAGUGAAGAAAUGAACAAAGAAAAUCUGGGCCAGGCAGGCAUCAAAAGAAAUAGUCUUUCGCUCAACCAGAAAGUCUGUAAUCAUUUUAAGGGUA [G104U]" assigned_category="not fulfilled"
residue_sequence="GUUAACGGUCAUAGGCCACGGAAACUAGGAGCACCAUUUCGCUGCCAGUGAAGAAAUGUACAAAGAAAAUCUGGGCCAGGCAGGCAUCAAAAGAAAUAGUCUUGCGCUCAACCAGAAAGUCUGUAAUCAUUUUAAGGGUA [U19C A59U]" assigned_category=fulfilled
residue_sequence="GUUAACGGUCAUAGGCCAUGGAAACUAGGAGCACCAUUUCGCUGCCAGUGAAGAAAUGAACAAAGAAAAUCUGGGCCAUGCAGGCAUCAAAAGAAAUAGUCUUGCGCUCAACCAGUAAGUCUGUAAUCAUUUUAAGGGUA [G79U A116U]" assigned_category="not fulfilled"

Textbook exercise: given the entry GUUAACGGUCAUAGGCCAUGGAAACUAGGGGCACCAUUUCGCUGCCAGUGAAGAAAUGAACAAAGAAAAUCUGGGCCAGGCAGGCAUCAAAAGAAAUAGUCUUGCGCUCAACCAGAUAGUCUGUAAUCAUUUUAAGGGUA [A30G A117U] , state whether its self-cleavage is greater than or equal to 0.6.
fulfilled

Threshold query (self-cleavage >= 0.6) on GUUAACGGUCAUAGGCCAUGGAAACUAGGAGCACCAUUUGGCUGCCAGUGAAGAAAUGAACAAAGAAAAUCUGGGCCAGGCAGGCAUCAAAAGGAAUAGUCUUGCGCUCAACCAGAAAGUCUGUAAUCAUUUUAAGGGUA [C40G A94G]
fulfilled

Has GUUAACGGUCAUAGGCCAUGGAGACUAGGAGCACCAUUUCGCUGCCAGUGAAGAAAUGAACAAAGAAAAUCUGGGCCAGGCAGGCAUCAAAAGAAAUAGUCUUGCGCUCAACCAGAAAGUCUGUAAUCAUUUUGAGGGUA [A23G A134G] a recorded self-cleavage greater than or equal to 0.6?
fulfilled

In plain terms: is recorded self-cleavage at least 0.6 for GUUAACGGUCAUAGGCCAUGGAAACUAGGAGCACCAUUUCGCUGCCAGUGAAGAAAUGAACAAAGAAGAUCUGGGCCAGGCAGGCAUCAAAAGAAAUAGUCUUGCGCUCAACCAGAAAGUCUGUGAUCAUUUUAAGGGUA [A68G A125G] ?
not fulfilled

// inclusive: self-cleavage at least 0.6? input: GUUAACGGUCAUAGGCCAUGGAAACUAGGAGCACCAUCUCGCUGCCAGUGAAGAAAUGAACAAAGAAAAUCUGGGCCAGGCAGGCAUCAAAAGAAAUAGUCUUGCGCUCAAACAGAAAGUCUGUAAUCAUUUUAAGGGUA [U38C C112A]
not fulfilled

Reported self-cleavage at or above 0.6? GUUAACGGUCAUAGGCCAUGGAAACUAGGAGCACCAUUUCGCUGCCAGUGAAGAAAUGAACAAAGAAAAUCUGGGCCAGGCAGGCCUCAAAAGAAAUAGUCUUGCGCUCAACCGGAAAGUCUGUAAUCAUUUUAAGGGUA [A86C A114G]
not fulfilled

Answer whether self-cleavage of GUUAACGGUCAUAGGCCAUGGAAACUAGGAGCACCAUCUCGCUGCCAGUGAAGAAAUGAACAAAGAAAAUCUGGGCCAGUCAGGCAUCAAAAGAAAUAGUCUUGCGCUCAACCAGAAAGUCUGUAAUCAUUUUAAGGGUA [U38C G80U] is greater than or equal to 0.6.
not fulfilled

Assess whether reported self-cleavage for GUUAACGGUCAUAGGCCAUGGAAACUAGGAGCACCAUUUCGCUGCCAGUGAAGAAAUGAACAAAGAAAAUCUGGGCCAGGCAGGCAUCAAAAGAAAUAGUCUUGCGCACAACCAGAAAGUCUCUAAUCAUUUUAAGGGUA [U108A G123C] sits at 0.6 or higher.
not fulfilled

Test whether the variant GUUAACGGUUAUAGGCCAUGGAAACUAGGAGCACCAUUUCGCUGCCAGUGAAGAAAUGAACAAAGAAAAUCUGGGCCAGGCAGGCAUCAAAAGAAAUAGUCUUGCGCUCAACCAGAAAGUCUGUAACCAUUUUAAGGGUA [C10U U127C] records self-cleavage of 0.6 or higher.
not fulfilled

Hello, I need to know if GUUAACGGUCAUAGGCCAUGGAAACUAGGAGCACCAUUUCGCUGCCAGUGAAGAAAUGAACAAAAAAAAUCCGGGCCAGGCAGGCAUCAAAAGAAAUAGUCUUGCGCUCAACCAGAAAGUCUGUAAUCAUUUUAAGGGUA [G65A U72C] has measured self-cleavage not below 0.6. Thanks!
not fulfilled

Please tell me: is the variant GUUAACGGUCAUAGGCCAUGGAAACUAGGAGCACCAUUUCGCUGCCAGUGAAGAAAUGAACAAAGAAAAUCUGGGCCUGGCAGGCAUCAAAAGAAAUAGUCUUGCGCUCAACCAGAAAGUCUGUAAACAUUUUAAGGGUA [A78U U127A] at or over 0.6 in terms of self-cleavage?
fulfilled

# check: self-cleavage of GUUAACGGUCAUAGGCCAUGGAAACUAGGAGCACCAUUUCGCUGCCAGUGAAGAAAUGAACAAAGGAAAUCUGGGCCAGGCAGGCAUCAAAAGAAAUGGUCUUGCGCUCAACCAGAAAGUCUGUAAUCAUUUUAAGGGUA [A66G A98G] is greater than or equal to 0.6
not fulfilled

API: above_or_equal(metric=self-cleavage, cutoff=0.6) for item GUUAACGGUCAUAGGCCAUGGAAACUAGGAGCACCAUUUCGCUGCCAGUGAAGAAAUGAACAAAGAAAAUCUGGGCCAGGCAGGCAUCAAAAGAAAUUGUCUUGCGCUCAACCAGAAAGUCUGUAGUCAUUUUAAGGGUA [A98U A126G]
fulfilled

Assess whether reported self-cleavage for GUUAACGGUCAUAGGCCAUGGAAACUAGGAGCACCAUUUCGCUGCCAGUGGAGAAAUGAACAAAGAAAAUCUGGGCCAGGCAGGCAUCAAAAGAGAUAGUCUUGCGCUCAACCAGAAAGUCUGUAAUCAUUUUAAGGGUA [A51G A95G] sits at 0.6 or higher.
fulfilled

Test whether the variant GUUAACGGUCAUAGGCCAUGGAAACUAGGAGCACCAUUUCGCUGCCAGUGAAGAAAUGAACAAAGAAAAUCUGGGCCAGGCAGGCAUCAAAAGAAAUAGUCUUGCGCUUAACCAGAAAGUCUGUAAUCAAUUUAAGGGUA [C109U U130A] records self-cleavage of 0.6 or higher.
not fulfilled
